Test system: MS2 coat protein
method: apparent KD of MS2 coat protein; higher = weaker reporter binding
cond: Eterna round: R107; input ligand: arginine 13.2 mM

{"columns": ["monomer_sequence", "target_of_assay", "apparent KD of MS2 coat protein (nM)"],
 "data": [
  ["AGUUGCGUUGGAAGGAGCGGCAUGUGUGGGCCUCCUUACAAUACAUGAGGAUCACCCAUGUGCCAGGUAGGUCGCCAACACAGGU [Tiedmaqu]", "MS2 coat protein", 47.9],
  ["UCGCCCGGGUCGGCCGCCACUGAGGUGAUGUGACAUGAGGAUCACCCAUGUUGUCAUGUGGCACAUAGGACCGGGACCCGGGCGA [Exclusion - Tryptophan B Attempt #3 (HarryS)]", "MS2 coat protein", 16.4],
  ["AGUGUAUCCAUCGAUACCAGCCACAACGUAACAUACACAUGAGGAUCACCCAUGUUGUGUGGCCCUUGGCAGCGGUGCCUGUGUA [Same State - Theophylline B Attempt #1 (HarryS)]", "MS2 coat protein", 14.4],
  ["AAUGUAUGGCACAUGAGGAUCACCCAUGUGCGAGGACCGGUACGGCCGCCACUCGGUCCUGGAUUCUUAUUACUAUACAUUAAUG [XTryp A #16]", "MS2 coat protein", 14],
  ["AGUAGCUGCCGAAGGAGCGCCGUGUUCCUACAUGAGGAUCACCCAUGUAGCGUUGGGUUACGGCAGGUAGGUCGCGGCGGAUAGG [Same State - Arginine B / B]", "MS2 coat protein", 30]
]}

Cited source: the supplement of paper PMC9170038
